# Experiment summary: Oral bioavailability in beagle dogs
# Format: in vivo
# Condition notes: dog, plasma, oral 2 mg/kg (1 mg/ml), mean n=3
Observed property: AUC(0-t) (ng·h/mL)

| Compound | Recorded result |
| --- | --- |
| [2H]C([2H])([2H])NCc1cc(-c2ccccc2F)n(S(=O)(=O)c2ccc(F)cc2)c1 [Example 7] | 6940 |

* * *

# Experiment summary: Oral bioavailability in beagle dogs
# Assay type: in vivo
# Condition notes: dog, plasma, oral 6 mg/kg (3 mg/ml), mean n=3
Observed property: half-life (h)

| Substance smiles | Recorded result |
| --- | --- |
| [2H]C([2H])([2H])NCc1cc(-c2ccccc2F)n(S(=O)(=O)c2ccc(F)cc2)c1 | 7.49 |

* * *

Collected IC50 values appear next to each entry.
# Target system: proton pump (H+/K+-ATPase) (Sus scrofa (Pig), UniProt P19156)
# Sequence (P19156 2-1034): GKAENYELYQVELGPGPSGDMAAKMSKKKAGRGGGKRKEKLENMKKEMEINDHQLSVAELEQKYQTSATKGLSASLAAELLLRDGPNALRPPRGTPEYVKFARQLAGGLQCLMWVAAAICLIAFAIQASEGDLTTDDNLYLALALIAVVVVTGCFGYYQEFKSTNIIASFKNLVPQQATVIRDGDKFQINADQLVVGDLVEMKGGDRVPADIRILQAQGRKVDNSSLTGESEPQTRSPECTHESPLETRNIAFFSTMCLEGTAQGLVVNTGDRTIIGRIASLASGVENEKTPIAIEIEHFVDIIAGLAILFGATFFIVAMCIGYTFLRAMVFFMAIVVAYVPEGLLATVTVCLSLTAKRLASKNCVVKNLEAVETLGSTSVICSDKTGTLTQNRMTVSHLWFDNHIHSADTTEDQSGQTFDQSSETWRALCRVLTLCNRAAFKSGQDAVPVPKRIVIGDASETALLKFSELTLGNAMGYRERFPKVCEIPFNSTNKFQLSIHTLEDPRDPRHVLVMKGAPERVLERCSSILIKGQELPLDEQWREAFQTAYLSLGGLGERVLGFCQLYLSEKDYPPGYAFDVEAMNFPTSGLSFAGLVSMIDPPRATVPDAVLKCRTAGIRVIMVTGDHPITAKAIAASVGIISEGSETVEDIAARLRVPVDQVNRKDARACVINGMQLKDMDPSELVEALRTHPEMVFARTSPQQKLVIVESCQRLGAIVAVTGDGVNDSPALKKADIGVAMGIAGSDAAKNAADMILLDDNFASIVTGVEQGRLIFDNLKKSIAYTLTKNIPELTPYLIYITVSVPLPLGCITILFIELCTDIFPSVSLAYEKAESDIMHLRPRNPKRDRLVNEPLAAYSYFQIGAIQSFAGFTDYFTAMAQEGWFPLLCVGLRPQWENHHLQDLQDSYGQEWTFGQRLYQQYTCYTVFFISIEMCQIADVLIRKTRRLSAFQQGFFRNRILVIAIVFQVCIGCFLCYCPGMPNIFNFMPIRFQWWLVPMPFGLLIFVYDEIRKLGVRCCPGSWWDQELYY
# Sequence (P18434 whole entry partner): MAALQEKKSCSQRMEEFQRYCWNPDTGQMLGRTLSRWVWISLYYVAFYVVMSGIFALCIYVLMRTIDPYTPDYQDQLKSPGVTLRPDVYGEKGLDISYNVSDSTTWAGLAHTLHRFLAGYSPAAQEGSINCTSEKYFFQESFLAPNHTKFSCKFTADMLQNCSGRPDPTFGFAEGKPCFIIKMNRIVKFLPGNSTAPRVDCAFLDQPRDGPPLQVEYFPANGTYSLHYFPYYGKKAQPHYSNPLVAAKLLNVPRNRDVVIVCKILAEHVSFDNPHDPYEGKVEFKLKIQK
# Experiment summary: Inhibitory activity on proton pump (H+/K+-ATPase) activity
# Format: biochemical
# Condition notes: porcine gastric mucosal microsomes, 5 mM KCl, pH 6.4; read-out: Proton pump inhibitory activity (IC50)

| Compound | IC50 [nM] |
| --- | --- |
| [2H]C([2H])([2H])NCc1cn(S(=O)(=O)c2ccc(OC)nc2)c(-c2c(F)cc(F)cc2F)c1OC [Example 40] | 64 |
| [2H]C([2H])([2H])NCc1cc(-c2ccccc2F)n(S(=O)(=O)c2ccc(C)cc2)c1 [Example 2] | 68 |
| [2H]C([2H])([2H])NCc1cc(-c2ccccc2F)n(S(=O)(=O)c2ccc(OC)cc2)c1 [Example 3] | 48 |
| [2H]C([2H])([2H])NCc1cc(-c2cccc(F)c2)n(S(=O)(=O)c2ccc(OC)cc2)c1 [Example 11] | 76 |
| [2H]C([2H])([2H])NCc1cc(-c2ccc(F)cc2F)n(S(=O)(=O)c2ccc(OC)cc2)c1 [Example 17] | 84 |
| [2H]C([2H])([2H])NCc1cc(-c2ccc(F)cc2F)n(S(=O)(=O)c2ccc(C)cc2)c1 [Example 16] | 82 |
| [2H]C([2H])([2H])NCc1cc(-c2ccccc2F)n(S(=O)(=O)c2ccc(C#N)cc2)c1 [Example 4] | 90 |
| [2H]C([2H])([2H])NCc1cc(-c2ccccc2F)n(S(=O)(=O)c2ccc(Br)cc2)c1 [Example 5] | 36 |
| [2H]C([2H])([2H])NCc1cc(-c2ccccc2F)n(S(=O)(=O)c2ccc(OC(F)(F)F)cc2)c1 [Example 8] | 51 |
| [2H]C([2H])([2H])NCc1cc(-c2ccccc2F)n(S(=O)(=O)c2ccc(F)cc2)c1 [Example 7] | 25 |
